Record form. Attribute: AC50. Fill in for each entry.
MEASURED TARGET: Replicative DNA helicase DnaB (Mycobacterium tuberculosis, UniProt P9WMR3)
Sequence (P9WMR3 whole entry): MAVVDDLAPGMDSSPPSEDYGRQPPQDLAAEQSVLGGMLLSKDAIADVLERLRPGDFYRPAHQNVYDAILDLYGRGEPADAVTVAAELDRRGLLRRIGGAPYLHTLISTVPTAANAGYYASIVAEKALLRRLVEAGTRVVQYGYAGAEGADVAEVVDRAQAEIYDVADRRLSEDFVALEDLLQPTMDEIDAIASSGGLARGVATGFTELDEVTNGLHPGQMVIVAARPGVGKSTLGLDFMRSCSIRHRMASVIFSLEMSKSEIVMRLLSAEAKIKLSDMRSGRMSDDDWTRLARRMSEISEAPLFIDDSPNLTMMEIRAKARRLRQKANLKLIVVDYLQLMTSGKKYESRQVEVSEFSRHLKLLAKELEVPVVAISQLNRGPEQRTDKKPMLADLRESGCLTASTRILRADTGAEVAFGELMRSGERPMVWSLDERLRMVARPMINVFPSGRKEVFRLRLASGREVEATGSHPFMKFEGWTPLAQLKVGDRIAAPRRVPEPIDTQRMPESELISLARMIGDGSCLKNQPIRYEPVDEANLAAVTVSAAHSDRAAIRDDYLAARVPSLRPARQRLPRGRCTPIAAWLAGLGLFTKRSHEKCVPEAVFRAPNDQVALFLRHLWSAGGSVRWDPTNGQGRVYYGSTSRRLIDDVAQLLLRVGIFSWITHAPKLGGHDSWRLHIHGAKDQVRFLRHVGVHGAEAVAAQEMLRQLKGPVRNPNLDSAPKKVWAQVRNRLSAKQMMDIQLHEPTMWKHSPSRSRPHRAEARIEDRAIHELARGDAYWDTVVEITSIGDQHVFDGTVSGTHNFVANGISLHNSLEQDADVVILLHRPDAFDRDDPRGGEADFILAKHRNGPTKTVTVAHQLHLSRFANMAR
ASSAY METHOD TEXT: DnaB intein splicing inhibitors, dose response, biochemical, cell-free fluorescence (AID 449749)
Assay type: functional
Active and inactive are the calls of the source.

Prompt line: Any idea what AC50 was measured for "O=[N+]([O-])c1cc(/C=N/c2cccc3c(O)cccc23)ccc1Cl" ?
Response line: 46.8 µM (active)

Prompt line: What do we get for CCN(Cc1ccccc1)C(c1ccc(C)cc1)c1nnnn1C(C)(C)CC (stereo not given) ?
Response line: 2.41 µM (active)

Prompt line: Then "CCOC(=O)CNc1nnc(SCC(=O)OCC)[nH]c1=O" ?
Response line: 8.14 µM (active)

Prompt line: Would you kindly repeat that for COC1(OC)C(/C=C/c2ccc(Cl)cc2)C(C#N)(C#N)C1(OC)OC (stereo not given) ?
Response line: 33.8 µM (active)

Prompt line: Another molecule to look at: CCN(CC)CCOc1ccc(/C(=C(\Cl)c2ccccc2)c2ccccc2)cc1.O=C(O)CC(O)(CC(=O)O)C(=O)O [CLOMIPHENE CITRATE]
Response line: 3.79 µM (active)

====

Cytochrome P450 2D6 (Homo sapiens, UniProt P10635) AC50 data;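 also: CYP2D6 member of a cytochrome P450 panel assay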
Sequence (P10635 whole entry): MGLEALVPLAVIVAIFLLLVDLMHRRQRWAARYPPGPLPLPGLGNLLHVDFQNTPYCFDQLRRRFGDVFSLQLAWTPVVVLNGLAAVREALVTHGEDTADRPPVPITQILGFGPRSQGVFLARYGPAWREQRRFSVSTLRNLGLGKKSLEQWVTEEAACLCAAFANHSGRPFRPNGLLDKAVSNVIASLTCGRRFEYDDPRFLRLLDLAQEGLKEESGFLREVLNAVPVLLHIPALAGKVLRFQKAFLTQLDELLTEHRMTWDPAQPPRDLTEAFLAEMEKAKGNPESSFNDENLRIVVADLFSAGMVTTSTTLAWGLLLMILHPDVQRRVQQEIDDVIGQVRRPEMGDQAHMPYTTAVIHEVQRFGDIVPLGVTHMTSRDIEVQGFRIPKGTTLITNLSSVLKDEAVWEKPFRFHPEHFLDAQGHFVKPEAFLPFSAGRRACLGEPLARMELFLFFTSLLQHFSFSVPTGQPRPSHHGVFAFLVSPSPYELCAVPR

Prompt line: Name the recorded AC50 for "COCCNc1ncnc2ccc(-c3ccccc3C(F)(F)F)cc12" .
Response line: 39.8 µM (inconclusive)

Prompt line: Same question, "CC(C)c1cccc2c([Si](C)(C)C)c3c(nc12)-c1cccc(=O)n1C3" this time
Response line: 20 µM (inconclusive)

Prompt line: Repeat with "COc1cccc(-c2nc(NCc3cnc(C)cn3)c3ccccc3n2)c1"
Response line: 39.8 µM (inconclusive)

Prompt line: How about "COC(=O)[C@@]1(Cc2ccccc2)[C@H]2c3cc(C(=O)N(C)C)n(Cc4ccccc4)c3C[C@H]2CN1C(=O)c1ccccc1" ?
Response line: 39.8 µM (inconclusive)

Prompt line: And then CCC(Sc1nc2cc3c(cc2c(=O)n1Cc1ccco1)OCO3)C(=O)Nc1ccccc1OC (centres undefined) , what is it?
Response line: 5.01 µM (inconclusive)

Prompt line: For "Cn1c(SCc2nc3ccccc3n2CCO)nc2ccccc21" then?
Response line: 20 µM (inconclusive)

Prompt line: Now consider "CN(C)c1ncc2nc(-c3ccc(Cl)cc3)c(=O)n(C[C@H]3CCCO3)c2n1" .
Response line: 1.58 µM (inconclusive)

Prompt line: What do you get for "CSc1nc2ccccc2cc1/C=C(\C#N)c1cccc(C)c1" ?
Response line: 6.31 µM (inconclusive)

Prompt line: Another compound to check: "Cc1noc(C)c1-c1nc(N(C)C)c2ccccc2n1"
Response line: 20 µM (inconclusive)

Prompt line: Field entry: "O=C(Nc1ccc(-n2nncc2-c2ccco2)cc1)c1cc2ccccc2oc1=O"
Response line: 2.51 µM (inconclusive)

Prompt line: Now this one: "O=C(Oc1ccccc1)N1CCC2(CC1)CCN(c1ccncc1)CC2"
Response line: 39.8 µM (inconclusive)

Prompt line: Try the compound CCN1CCN(c2nc3ccccc3nc2C(C#N)C(=O)OC2CCCCC2)CC1 (centres undefined)
Response line: 28.2 µM (inconclusive)

Prompt line: "CCOC(=O)c1ccccc1Oc1c(F)c(F)nc(NCCO)c1F" ?
Response line: 20 µM (inconclusive)

Prompt line: Try "COc1ccc(C(=O)c2ccccc2)c(O)c1" next.
Response line: 12.6 µM (inconclusive)
